# assayed system: D(2) dopamine receptor (Homo sapiens)
# Sequence (P14416 whole entry): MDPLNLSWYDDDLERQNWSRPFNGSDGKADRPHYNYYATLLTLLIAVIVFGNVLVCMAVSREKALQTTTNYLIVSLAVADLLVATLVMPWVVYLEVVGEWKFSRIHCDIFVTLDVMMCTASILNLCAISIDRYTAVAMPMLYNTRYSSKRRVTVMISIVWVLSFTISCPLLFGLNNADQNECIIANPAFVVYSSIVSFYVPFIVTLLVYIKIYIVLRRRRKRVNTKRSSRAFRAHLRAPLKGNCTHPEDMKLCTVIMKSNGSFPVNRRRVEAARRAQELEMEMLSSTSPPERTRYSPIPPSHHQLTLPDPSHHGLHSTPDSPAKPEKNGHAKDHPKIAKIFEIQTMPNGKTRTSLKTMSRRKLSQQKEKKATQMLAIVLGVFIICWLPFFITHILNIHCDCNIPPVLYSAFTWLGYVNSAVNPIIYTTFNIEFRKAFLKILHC
property label: Ki

CN(C1CCN(CCOc2ccccc2-c2ccccc2)CC1)S(=O)(=O)c1ccccc1 : 52 nM

What the record says about CC(C)c1ccccc1OCCN1CCC(N(CC2CC2)S(=O)(=O)c2cccc(F)c2)CC1 : Ki is 15 nM

What the record says about CC(C)c1ccccc1OCCN1CCC(N(C)S(=O)(=O)c2cccc(F)c2)CC1 : Ki is 45 nM

What the record says about CC(C)c1ccccc1OCCN1CCC(N(C)S(=O)(=O)c2cnn(C)c2)CC1 : Ki is 46 nM

What the record says about CN(C1CCN(CCOc2ccccc2C(C)(C)C)CC1)S(=O)(=O)c1ccc(F)cc1 : Ki is 324 nM

What the record says about Cn1cc(S(=O)(=O)N(CC2CC2)C2CCN(CCOc3ccccc3-c3ccccc3)CC2)cn1 : Ki is 16 nM

What the record says about CN(C1CCN(CCOc2ccccc2C(C)(C)C)CC1)S(=O)(=O)c1ccccc1 : Ki is 360 nM

What the record says about CN(C1CCN(CCOc2ccccc2C(C)(C)C)CC1)S(=O)(=O)c1cccc(F)c1 : Ki is 290 nM

What the record says about CC(C)(C)c1ccccc1OCCN1CCC(N(CC2CC2)S(=O)(=O)c2ccc(F)cc2)CC1 : Ki is 160 nM

* * *

Observed pKi values for 5-hydroxytryptamine receptor 2A (Homo sapiens) are listed in what follows.
Lab note: report pKi as minus log10 of the concentration in molar units, number only.

CN(C1CCN(CCOc2ccccc2-c2ccccc2)CC1)S(=O)(=O)c1cnn(C)c1 : 7.24
Cn1cc(S(=O)(=O)N(CC2CC2)C2CCN(CCOc3ccccc3C(C)(C)C)CC2)cn1 : 5.83
CC(C)c1ccccc1OCCN1CCC(N(CC2CC2)S(=O)(=O)c2cnn(C)c2)CC1 : 6.42

What the record says about CC(C)c1ccccc1OCCN1CCC(N(C)S(=O)(=O)c2ccc(F)cc2)CC1 : pKi is 6.42

What the record says about CC(C)c1ccccc1OCCN1CCC(N(CC2CC2)S(=O)(=O)c2ccc(F)cc2)CC1 : pKi is 6.38

* * *

Observed Ki values for 5-hydroxytryptamine receptor 2A (Homo sapiens, UniProt P28223) are listed in what follows.
Respond with the bare value in µM.

What the record says about CN(C1CCN(CCOc2ccccc2C(C)(C)C)CC1)S(=O)(=O)c1cnn(C)c1 : Ki is 0.557

What the record says about CC(C)c1ccccc1OCCN1CCC(N(CC2CC2)S(=O)(=O)c2cccc(F)c2)CC1 : Ki is 0.429

What the record says about CC(C)c1ccccc1OCCN1CCC(N(C)S(=O)(=O)c2cnn(C)c2)CC1 : Ki is 0.121

What the record says about O=S(=O)(c1ccc(F)cc1)N(CC1CC1)C1CCN(CCOc2ccccc2-c2ccccc2)CC1 : Ki is 0.07

What the record says about CN(C1CCN(CCOc2ccccc2C(C)(C)C)CC1)S(=O)(=O)c1ccc(F)cc1 : Ki is 1.07

* * *

# test name: Intrinsic clearance in mouse liver microsomes at 20 uM at pH 7.4 incubated for 15 mins by UPLC/MS analysis in presence of NADPH
# Format: ADME
# stated conditions: read-out: CLH
property label: microsomal CLint at 20 µM

Cn1cc(S(=O)(=O)N(CC2CC2)C2CCN(CCOc3ccccc3C(C)(C)C)CC2)cn1 : 77.9 µL/min/mg
Cn1cc(S(=O)(=O)N(CC2CC2)C2CCN(CCOc3ccccc3-c3ccccc3)CC2)cn1 : 55.9 µL/min/mg
CN(C1CCN(CCOc2ccccc2-c2ccccc2)CC1)S(=O)(=O)c1cnn(C)c1 : 167 µL/min/mg
CN(C1CCN(CCOc2ccccc2C(C)(C)C)CC1)S(=O)(=O)c1cnn(C)c1 : 190 µL/min/mg

What the record says about Cn1cc(S(=O)(=O)NC2CCN(CCOc3ccccc3C(C)(C)C)CC2)cn1 : microsomal CLint at 20 µM is > 200 µL/min/mg

What the record says about Cn1cc(S(=O)(=O)NC2CCN(CCOc3ccccc3-c3ccccc3)CC2)cn1 : microsomal CLint at 20 µM is > 200 µL/min/mg
